// provenance: PubChem BioAssay AID1159580

test: chemical genetic growth profiling, strain panel (AID 1159580);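 note: tested at 20 µM; growth read once vehicle control cultures reached saturation at 30 °C; 1 = growth at the plate median or of vehicle wells; lower values mean less growth of the strain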; conditions: S. cerevisiae deletion strains, growth OD, locus YCL016C, strain dcc1, hits give low values
Among all 5,500 compounds or so, about 2,000 (36%) were called active. About 18% were inconclusive and are not listed. The list shows a part of the results.
Please provide measured normalized growth for the entries that follow.

Which measured normalized growth value corresponds to CC(=O)NS(=O)(=O)c1ccc(NC(=O)c2ccccc2C(=O)O)cc1 ? 1.02 (inactive)

Similarly, O=C(OC[C@H]1O[C@H](OC(=O)c2cc(O)c(O)c(OC(=O)c3cc(O)c(O)c(O)c3)c2)[C@H](OC(=O)c2cc(O)c(O)c(OC(=O)c3cc(O)c(O)c(O)c3)c2)[C@@H](OC(=O)c2cc(O)c(O)c(OC(=O)c3cc(O)c(O)c(O)c3)c2)[C@@H]1OC(=O)c1cc(O)c(O)c(OC(=O)c2cc(O)c(O)c(O)c2)c1)c1cc(O)c(O)c(OC(=O)c2cc(O)c(O)c(O)c2)c1 ? 0.735 (active)

Similarly, NC(=O)N1c2ccccc2C=Cc2ccccc21 ? 1.02 (inactive)

Similarly, O=c1[nH]cnc2c1ncn2C1O[C@H](CO)[C@@H](O)[C@H]1O (stereo partly specified) ? 1 (inactive)

Similarly, CC[C@H]1OC(=O)[C@H](C)[C@@H](O[C@H]2C[C@@](C)(OC)[C@@H](O)[C@H](C)O2)[C@H](C)[C@@H](O[C@@H]2O[C@H](C)C[C@H](N(C)C)[C@H]2O)[C@](C)(O)C[C@@H](C)[C@@H]2N[C@@H](COCCOC)O[C@H]([C@H]2C)[C@]1(C)O ? 0.985 (inactive)

Similarly, CC(=O)OC[C@H]1O[C@@H](Oc2cc(OC(C)=O)c3c(=O)cc(-c4ccc(OC(C)=O)cc4)oc3c2)[C@H](OC(C)=O)[C@@H](OC(C)=O)[C@@H]1OC(C)=O ? 1.06 (inactive)

###

assay: chemical genetic growth profiling, strain panel (AID 1159580);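 note: tested at 20 µM; growth read once vehicle control cultures reached saturation at 30 °C; 1 = growth at the plate median or of vehicle wells; lower values mean less growth of the strain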; settings: S. cerevisiae deletion strains, growth OD, locus YGL253W, strain hxk2, hits give low values
Among all 5,500 compounds or so, about 2,000 (36%) were called active. Not shown: some 18% with an inconclusive outcome. The list shows a part of the results.
Please provide measured normalized growth for the entries that follow.
// keep it numeric: no unit symbol after the value

Which measured normalized growth value corresponds to CCNc1nc(Cl)nc(NCC)n1 ? 0.993

Similarly, CNCC[C@@H](Oc1ccccc1)c1ccccc1 ? 0.984

Similarly, NC1C[C@H]1c1ccccc1 (some centres undefined) ? 0.985

Similarly, O=c1[nH]cnc2c1ncn2C1O[C@H](CO)[C@@H](O)[C@H]1O (some centres undefined) ? 0.988

Similarly, O=c1oc2c(O)c(O)cc3c(=O)oc4c(O)c(O)cc1c4c23 ? 0.768

Similarly, COc1cc(-c2coc3cc(O[C@@H]4O[C@H](CO)[C@@H](O)[C@H](O)[C@H]4O)c(OC)c(O)c3c2=O)cc(O)c1OC ? 1.02

Similarly, COc1cnc(NS(=O)(=O)c2ccc(N)cc2)nc1 ? 0.994

Similarly, O=C1c2ccccc2C(=O)C1c1ccccc1 ? 0.998

Similarly, CCCCCCCCCCCCCCCCCCOCC(O)CO (centres undefined) ? 1

Similarly, O=C(OC[C@H]1O[C@H](OC(=O)c2cc(O)c(O)c(OC(=O)c3cc(O)c(O)c(O)c3)c2)[C@H](OC(=O)c2cc(O)c(O)c(OC(=O)c3cc(O)c(O)c(O)c3)c2)[C@@H](OC(=O)c2cc(O)c(O)c(OC(=O)c3cc(O)c(O)c(O)c3)c2)[C@@H]1OC(=O)c1cc(O)c(O)c(OC(=O)c2cc(O)c(O)c(O)c2)c1)c1cc(O)c(O)c(OC(=O)c2cc(O)c(O)c(O)c2)c1 ? 0.796

Similarly, COc1ccc(C(=O)c2ccccc2)c(O)c1O ? 0.979

Similarly, CCOc1cccc(C(=O)c2ccc(O)c(O)c2O)c1 ? 0.901

Similarly, C=C(C)[C@@H]1CC[C@]2(CO)CC[C@]3(C)[C@H](CCC4[C@@]5(C)CC[C@H](O)C(C)(C)C5CC[C@]43C)C12 (some centres undefined) ? 1.04

Similarly, O=c1c(O)c(-c2ccc(O)c(O)c2)oc2cc(O)ccc12 ? 0.969

Similarly, O=C(CCc1ccc(O)cc1)c1c(O)cc(O)cc1O[C@@H]1O[C@H](CO)[C@@H](O)[C@H](O)[C@H]1O ? 1.02

Similarly, CCOC([O-])=Nc1c[n+](N2CCOCC2)no1 ? 0.993

Similarly, CCC1(CC)C(=O)C=CNC1=O ? 0.985

Similarly, CC(=O)OC[C@H]1O[C@@H](Oc2cc(OC(C)=O)c3c(=O)cc(-c4ccc(OC(C)=O)cc4)oc3c2)[C@H](OC(C)=O)[C@@H](OC(C)=O)[C@@H]1OC(C)=O ? 0.968

Similarly, COc1ccc(-c2oc3ccccc3c(=O)c2O)cc1OC ? 0.544
